Reported 3D sphere count of MDAMB231 values for the following compounds.
system: spheres of MDAMB231; assay: In vitro sphere-forming assay, MDAMB231 in Mammosphere media; format: cell-based; details: drug conc 0.25 uM, 2000 cells/well, n = 6 ± S.D

compound: Cl.c1ccc(COc2ccc(-c3ccc4c(c3)OCO4)c3cccnc23)cc1 [Formula XIII]
3D sphere count of MDAMB231: 36(±3)
--
compound: CCOC(=O)c1c(C(=O)OCC)c(-c2ccc3c(c2)OCO3)c2cc(OC)c(OC)cc2c1OC1OC[C@@H](OC)[C@H](OC)[C@H]1O (some centres unmarked) [Formula VI]
3D sphere count of MDAMB231: 36(±2)
--
compound: Cn1cccc1C(=O)Oc1ccc(-c2ccc3c(c2)OCO3)c2ccccc12 [Formula X]
3D sphere count of MDAMB231: 37(±4)
--
compound: O=C(Nc1ccc(-c2ccc3c(c2)OCO3)c2ccccc12)c1ccco1 [Formula XII]
3D sphere count of MDAMB231: 27(±2)
--
compound: COc1cc2c(OC(=O)C(c3ccccc3)C3CCCC3)c3c(c(-c4ccc5c(c4)OCO5)c2cc1OC)C(=O)OC3 (centres unmarked) [Formula VIII]
3D sphere count of MDAMB231: 29(±4)
--
compound: CO[C@H]1[C@H](OC)COC(Oc2ccc(-c3ccc4c(c3)OCO4)c3ccccc23)[C@@H]1O (some centres unmarked) [Formula V]
3D sphere count of MDAMB231: 24(±3)
--
compound: COc1cc2c(OC(=O)c3cccn3C)c3c(c(-c4ccc5c(c4)OCO5)c2cc1OC)C(=O)OC3 [Formula VII]
3D sphere count of MDAMB231: 46(±7)
--
compound: O=C(Oc1ccc(-c2ccc3c(c2)OCO3)c2ccccc12)C(c1ccccc1)C1CCCC1 (centres unmarked) [Formula IX]
3D sphere count of MDAMB231: 40(±5)

###

system: spheres of MDAMB231; experiment: In vitro sphere-forming assay, MDAMB231 in Mammosphere media; assay type: cell-based; details: drug conc 2.5 uM, 2000 cells/well, n = 6 ± S.D

molecule: O=C(Nc1ccc(-c2ccc3c(c2)OCO3)c2ccccc12)c1ccco1
assay.system: spheres of MDAMB231
3D sphere count of MDAMB231: 17(±2)
//
molecule: COc1cc2c(OC(=O)C(c3ccccc3)C3CCCC3)c3c(c(-c4ccc5c(c4)OCO5)c2cc1OC)C(=O)OC3 (centres unmarked)
assay.system: spheres of MDAMB231
3D sphere count of MDAMB231: 13(±2)
//
molecule: Cn1cccc1C(=O)Oc1ccc(-c2ccc3c(c2)OCO3)c2ccccc12
assay.system: spheres of MDAMB231
3D sphere count of MDAMB231: 28(±3)
//
molecule: Cl.c1ccc(COc2ccc(-c3ccc4c(c3)OCO4)c3cccnc23)cc1
assay.system: spheres of MDAMB231
3D sphere count of MDAMB231: 27(±2)
//
molecule: COc1cc2c(OC(=O)c3cccn3C)c3c(c(-c4ccc5c(c4)OCO5)c2cc1OC)C(=O)OC3
assay.system: spheres of MDAMB231
3D sphere count of MDAMB231: 40(±7)
//
molecule: O=C(Oc1ccc(-c2ccc3c(c2)OCO3)c2ccccc12)C(c1ccccc1)C1CCCC1 (centres unmarked)
assay.system: spheres of MDAMB231
3D sphere count of MDAMB231: 26(±3)
//
molecule: CCOC(=O)c1c(C(=O)OCC)c(-c2ccc3c(c2)OCO3)c2cc(OC)c(OC)cc2c1OC1OC[C@@H](OC)[C@H](OC)[C@H]1O (some centres unmarked)
assay.system: spheres of MDAMB231
3D sphere count of MDAMB231: 24(±3)
//
molecule: CO[C@H]1[C@H](OC)COC(Oc2ccc(-c3ccc4c(c3)OCO4)c3ccccc23)[C@@H]1O (some centres unmarked)
assay.system: spheres of MDAMB231
3D sphere count of MDAMB231: 12(±1)

###

tested on: spheres of PC3; experiment: In vitro sphere-forming assay, PC3 in Prostosphere media; type: cell-based; conditions: drug conc 0.025 uM, 2000 cells/well, n = 6 ± S.D
Reported 3D sphere count of PC3 values for the following molecules.

molecule: COc1cc2c(OC(=O)c3cccn3C)c3c(c(-c4ccc5c(c4)OCO5)c2cc1OC)C(=O)OC3
3D sphere count of PC3: 64(±8)

molecule: O=C(Oc1ccc(-c2ccc3c(c2)OCO3)c2ccccc12)C(c1ccccc1)C1CCCC1 (stereo not shown)
3D sphere count of PC3: 60(±7)

molecule: O=C(Nc1ccc(-c2ccc3c(c2)OCO3)c2ccccc12)c1ccco1
3D sphere count of PC3: 37(±3)

molecule: CCOC(=O)c1c(C(=O)OCC)c(-c2ccc3c(c2)OCO3)c2cc(OC)c(OC)cc2c1OC1OC[C@@H](OC)[C@H](OC)[C@H]1O (stereo partly shown)
3D sphere count of PC3: 40(±3)

###

test system: spheres of PC3; assay: In vitro sphere-forming assay, PC3 in Prostosphere media; assay type: cell-based; conditions: drug conc 0.025 uM, 2000 cells/well, n = 6 ± S.D
Reported 3D sphere count of PC3 values for the following compounds.
experimental.endpoint: 3D sphere count of PC3

compound: Cl.c1ccc(COc2ccc(-c3ccc4c(c3)OCO4)c3cccnc23)cc1
assay.system: spheres of PC3
reported.result: 41(±7)
//
compound: CO[C@H]1[C@H](OC)COC(Oc2ccc(-c3ccc4c(c3)OCO4)c3ccccc23)[C@@H]1O (stereo partly drawn)
assay.system: spheres of PC3
reported.result: 50(±5)
//
compound: COc1cc2c(OC(=O)C(c3ccccc3)C3CCCC3)c3c(c(-c4ccc5c(c4)OCO5)c2cc1OC)C(=O)OC3 (stereo not drawn)
assay.system: spheres of PC3
reported.result: 29(±3)

###

Reported 3D sphere count of MDAMB231 values for the following compounds.
tested on: spheres of MDAMB231; assay: In vitro sphere-forming assay, MDAMB231 in Mammosphere media; format: cell-based; conditions: drug conc 25 uM, 2000 cells/well, n = 6 ± S.D
experimental.endpoint: 3D sphere count of MDAMB231

compound: O=C(Oc1ccc(-c2ccc3c(c2)OCO3)c2ccccc12)C(c1ccccc1)C1CCCC1 (centres unmarked) [Formula IX]
reported.result: 22(±3)

compound: O=C(Nc1ccc(-c2ccc3c(c2)OCO3)c2ccccc12)c1ccco1 [Formula XII]
reported.result: 8(±1)

compound: Cn1cccc1C(=O)Oc1ccc(-c2ccc3c(c2)OCO3)c2ccccc12 [Formula X]
reported.result: 24(±3)

compound: COc1cc2c(OC(=O)c3cccn3C)c3c(c(-c4ccc5c(c4)OCO5)c2cc1OC)C(=O)OC3 [Formula VII]
reported.result: 40(±3)

compound: Cl.c1ccc(COc2ccc(-c3ccc4c(c3)OCO4)c3cccnc23)cc1 [Formula XIII]
reported.result: 13(±2)

compound: COc1cc2c(OC(=O)C(c3ccccc3)C3CCCC3)c3c(c(-c4ccc5c(c4)OCO5)c2cc1OC)C(=O)OC3 (centres unmarked) [Formula VIII]
reported.result: 8(±2)

compound: CCOC(=O)c1c(C(=O)OCC)c(-c2ccc3c(c2)OCO3)c2cc(OC)c(OC)cc2c1OC1OC[C@@H](OC)[C@H](OC)[C@H]1O (some centres unmarked) [Formula VI]
reported.result: 7(±2)

compound: CO[C@H]1[C@H](OC)COC(Oc2ccc(-c3ccc4c(c3)OCO4)c3ccccc23)[C@@H]1O (some centres unmarked) [Formula V]
reported.result: 7(±2)

###

Test system: spheres of PC3
Experiment: In vitro sphere-forming assay, PC3 in Prostosphere media
Type: cell-based
Details: drug conc 0.25 uM, 2000 cells/well, n = 6 ± S.D
Protocol: Sphere assay measures the ability of Cancer Stein Cells to form spheres in specially designed serum-free medium. […] Procedure: —The cells were trypsinised and made into single-cell suspension by passing through cell strainers ([…], respectively), The cells were diluted at the concentration of 2000 cells/100 μL and suspended in either Mammosphere (for breast cell lines) or Prostosphere (for prostate cell lines). […] Number of primary spheres formed for each concentration was counted. […]
experimental.endpoint: 3D sphere count of PC3

molecule: CO[C@H]1[C@H](OC)COC(Oc2ccc(-c3ccc4c(c3)OCO4)c3ccccc23)[C@@H]1O (stereo partly shown) [Formula V]
reported.result: 40(±5)

molecule: COc1cc2c(OC(=O)C(c3ccccc3)C3CCCC3)c3c(c(-c4ccc5c(c4)OCO5)c2cc1OC)C(=O)OC3 (stereo not shown) [Formula VIII]
reported.result: 24(±3)

molecule: Cl.c1ccc(COc2ccc(-c3ccc4c(c3)OCO4)c3cccnc23)cc1 [Formula XIII]
reported.result: 39(±5)

molecule: O=C(Nc1ccc(-c2ccc3c(c2)OCO3)c2ccccc12)c1ccco1 [Formula XII]
reported.result: 28(±3)

molecule: CCOC(=O)c1c(C(=O)OCC)c(-c2ccc3c(c2)OCO3)c2cc(OC)c(OC)cc2c1OC1OC[C@@H](OC)[C@H](OC)[C@H]1O (stereo partly shown) [Formula VI]
reported.result: 28(±2)

molecule: O=C(Oc1ccc(-c2ccc3c(c2)OCO3)c2ccccc12)C(c1ccccc1)C1CCCC1 (stereo not shown) [Formula IX]
reported.result: 44(±4)

molecule: COc1cc2c(OC(=O)c3cccn3C)c3c(c(-c4ccc5c(c4)OCO5)c2cc1OC)C(=O)OC3 [Formula VII]
reported.result: 31(±5)

The reported measurements were obtained from patent US11680078B2.
